Catalogue of Ki values
Target: rBIIa/beta 1 sodium channels expressed in Xenopus oocytes (Rattus norvegicus)
Sequence (P04775 whole entry): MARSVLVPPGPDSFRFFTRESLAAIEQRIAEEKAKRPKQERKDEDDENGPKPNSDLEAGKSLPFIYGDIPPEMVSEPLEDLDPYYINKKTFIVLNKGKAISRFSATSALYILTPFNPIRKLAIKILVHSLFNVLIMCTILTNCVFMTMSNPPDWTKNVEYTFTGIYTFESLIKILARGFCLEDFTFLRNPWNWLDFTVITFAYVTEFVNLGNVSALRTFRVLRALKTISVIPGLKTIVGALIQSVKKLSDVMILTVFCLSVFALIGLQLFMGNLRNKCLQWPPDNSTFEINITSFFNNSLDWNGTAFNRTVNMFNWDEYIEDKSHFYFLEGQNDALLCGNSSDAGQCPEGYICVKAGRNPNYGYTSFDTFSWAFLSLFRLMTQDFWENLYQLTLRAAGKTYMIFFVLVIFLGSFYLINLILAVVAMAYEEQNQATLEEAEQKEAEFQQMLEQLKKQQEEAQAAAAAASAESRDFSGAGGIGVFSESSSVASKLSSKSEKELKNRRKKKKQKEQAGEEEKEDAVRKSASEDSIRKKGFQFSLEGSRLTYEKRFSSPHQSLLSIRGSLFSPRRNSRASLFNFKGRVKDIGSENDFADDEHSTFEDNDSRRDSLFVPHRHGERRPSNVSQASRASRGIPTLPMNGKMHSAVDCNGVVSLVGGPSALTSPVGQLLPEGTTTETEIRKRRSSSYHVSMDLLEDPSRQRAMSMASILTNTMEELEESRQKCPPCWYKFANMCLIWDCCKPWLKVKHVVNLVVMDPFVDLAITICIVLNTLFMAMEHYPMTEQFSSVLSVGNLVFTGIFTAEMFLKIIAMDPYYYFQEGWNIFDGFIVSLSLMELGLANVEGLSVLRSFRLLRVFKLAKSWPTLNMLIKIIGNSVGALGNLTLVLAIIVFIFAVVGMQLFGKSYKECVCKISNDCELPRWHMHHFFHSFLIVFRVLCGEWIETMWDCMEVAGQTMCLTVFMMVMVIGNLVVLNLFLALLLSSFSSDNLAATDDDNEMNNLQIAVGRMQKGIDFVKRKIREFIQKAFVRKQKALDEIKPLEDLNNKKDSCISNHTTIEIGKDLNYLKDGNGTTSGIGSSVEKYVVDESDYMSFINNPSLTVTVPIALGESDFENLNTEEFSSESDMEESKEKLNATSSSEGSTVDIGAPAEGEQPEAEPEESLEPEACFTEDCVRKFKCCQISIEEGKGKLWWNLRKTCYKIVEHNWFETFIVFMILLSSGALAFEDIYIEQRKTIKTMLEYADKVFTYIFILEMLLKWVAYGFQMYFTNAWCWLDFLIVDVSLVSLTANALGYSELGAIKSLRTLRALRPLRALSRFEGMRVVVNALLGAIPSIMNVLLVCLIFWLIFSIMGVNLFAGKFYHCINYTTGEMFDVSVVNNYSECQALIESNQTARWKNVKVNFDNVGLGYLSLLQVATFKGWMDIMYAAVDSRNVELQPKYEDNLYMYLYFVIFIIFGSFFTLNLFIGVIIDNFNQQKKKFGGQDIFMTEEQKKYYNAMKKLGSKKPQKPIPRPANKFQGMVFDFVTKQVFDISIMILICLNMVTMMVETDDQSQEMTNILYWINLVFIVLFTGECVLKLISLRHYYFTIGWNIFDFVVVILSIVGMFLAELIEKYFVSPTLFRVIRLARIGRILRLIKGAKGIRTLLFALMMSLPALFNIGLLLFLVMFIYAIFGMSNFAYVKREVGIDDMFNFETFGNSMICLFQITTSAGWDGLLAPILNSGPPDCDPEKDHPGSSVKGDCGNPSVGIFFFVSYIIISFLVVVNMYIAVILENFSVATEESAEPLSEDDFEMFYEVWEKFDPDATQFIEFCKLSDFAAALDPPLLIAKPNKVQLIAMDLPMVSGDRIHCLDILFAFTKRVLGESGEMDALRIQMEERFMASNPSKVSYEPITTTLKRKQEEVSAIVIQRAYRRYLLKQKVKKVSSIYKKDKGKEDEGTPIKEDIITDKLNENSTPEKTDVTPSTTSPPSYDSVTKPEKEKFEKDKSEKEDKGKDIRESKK
Sequence (Q00954 19-218 partner): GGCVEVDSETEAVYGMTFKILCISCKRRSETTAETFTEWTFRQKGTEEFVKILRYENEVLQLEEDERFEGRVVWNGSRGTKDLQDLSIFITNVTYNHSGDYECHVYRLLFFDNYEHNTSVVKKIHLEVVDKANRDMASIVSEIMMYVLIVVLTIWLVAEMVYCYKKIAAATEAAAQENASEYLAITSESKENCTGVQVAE
Assay: Electrophysiological assay, two-electrode voltage clamp in oocytes, inactivated-state protocol
Assay type: cell-based
Conditions: apparent inhibition constant from single point inhibition data; rat brain type IIa/beta 1 Na+ channels in Xenopus oocytes; inactivated state; read-out: Ki (oocyte)
Express your answer in nM, writing the number without its unit.

These recorded examples may help you get a feel for the data.
| molecule | measurement.type | unit.descriptor | data.value |
| --- | --- | --- | --- |
| CN(C)CCCN1C(=O)CSC1c1cccc(Oc2cccc(C(F)(F)F)c2)c1 (stereo not shown) | Ki | nM | 2750 |
| CC1SCC(=O)N1CCN1CCCCC1 (stereo not shown) | Ki | nM | 70700 |
| O=C1CSC(c2cccc(OCc3ccccc3)c2)N1CCN1CCCCC1 (stereo not shown) | Ki | nM | 390 |
| O=C1CSC(c2cccc(Oc3ccc(Cl)cc3)c2)N1CCN1CCCCC1 (stereo not shown) | Ki | nM | 390 |
| O=C1CSC(c2cccc(OCc3ccccc3)c2)N1CCN1CCCC1 (stereo not shown) | Ki | nM | 3430 |
| CN(C)CCN1C(=O)CSC1c1cccc(Oc2ccc(C(C)(C)C)cc2)c1 (stereo not shown) | Ki | nM | 840 |

Moving on to the next molecule.
Task: Form field: reported Ki of O=C1CSC(C=C(c2ccccc2)c2ccccc2)N1CCN1CCCC1 (stereo not shown)
Result: 3480
